Would you kindly list Kp at 1.5 h for each of these molecules?
test: Pharmacokinetic measurements in mice (intravenous and intra-nasal dosing); format: in vivo; details: male, C57BL/6J, lung/plasma, other: intra-nasal; mouse, i.n. dosing, 1.5 h; read-out: lung/plasma conc ratio at time(h)
Would you mind answering with just the numeric figure?

Field Kp at 1.5 h (entry COC(=O)c1cc2c(cc1C)/C(=C(/Nc1ccc(C(=O)NOCCN3CCN(C)CC3)cc1)c1ccccc1)C(=O)N2 [Example 6] ) reads 398

Field Kp at 1.5 h (entry COC(=O)c1cc2c(cc1C)/C(=C(/Nc1ccc(C(=O)NOCCN(C)C)c(C)c1)c1ccccc1)C(=O)N2 [Example 5] ) reads 688

###

assay: Pharmacokinetic measurements in mice (intravenous and intra-nasal dosing); assay type: in vivo; details: male, C57BL/6J, whole blood, iv; mouse, i.v. dosing, mean
Would you kindly list MRT for each of these molecules?

Field MRT (entry COC(=O)c1cc2c(cc1C)/C(=C(/Nc1ccc(C(=O)NOCCN(C)C)c(C)c1)c1ccccc1)C(=O)N2 ) reads 3.2 h

Field MRT (entry COC(=O)c1ccc2c(c1)NC(=O)/C2=C(\Nc1ccc(N(C)C(=O)CN2CCN(C)CC2)cc1)c1ccccc1 [Nintedanib, reference compound] ) reads 2 h

###

test: PAMPA permeability assay; assay type: in vitro ADME; details: PAMPA, pH 7, PAMPA, donor and acceptor compartments
Would you kindly list recovery at 5 hr, 10 μM for each of these compounds?
Your answer is read as %, so omit the unit and give the number.

Field recovery at 5 hr, 10 μM (entry COC(=O)c1cc2c(cc1C)/C(=C(/Nc1ccc(C(=O)NOCCN3CCN(CCO)CC3)cc1)c1ccccc1)C(=O)N2 ) reads 58.1

Field recovery at 5 hr, 10 μM (entry COC(=O)c1ccc2c(c1)NC(=O)/C2=C(\Nc1ccc(S(=O)(=O)N(C)OCCN2CCN(C)CC2)cc1)c1ccccc1 ) reads 41.5

Field recovery at 5 hr, 10 μM (entry COC(=O)c1cc2c(cc1C)/C(=C(/Nc1ccc(C(=O)N(C)OCCN3CCN[C@@H](C)C3)cc1)c1ccccc1)C(=O)N2 ) reads 72.8

Field recovery at 5 hr, 10 μM (entry COC(=O)c1ccc2c(c1)NC(=O)/C2=C(\Nc1ccc(C(=O)NOCCN2CCC(C#N)CC2)cc1)c1ccccc1 ) reads 75.3

Field recovery at 5 hr, 10 μM (entry COC(=O)c1cc2c(cc1C)/C(=C(/Nc1ccc(C(=O)NOC3CCN(C)CC3)cc1)c1ccccc1)C(=O)N2 ) reads 87

Field recovery at 5 hr, 10 μM (entry COC(=O)c1ccc2c(c1)NC(=O)/C2=C(\Nc1ccc(S(=O)(=O)NOCCN(C)C)cc1)c1ccccc1 ) reads 37.6

Field recovery at 5 hr, 10 μM (entry COC(=O)c1cc2c(cc1C)/C(=C(/Nc1ccc(C(=O)NOCCCN(C)C)c(C)c1)c1ccccc1)C(=O)N2 ) reads 65.1

Field recovery at 5 hr, 10 μM (entry COC(=O)c1cc2c(cc1C)/C(=C(/Nc1ccc(C(=O)NOCCN3CCN(C)CC3)c(C)c1)c1ccccc1)C(=O)N2 ) reads 69

Field recovery at 5 hr, 10 μM (entry COC(=O)c1cc2c(cc1C)/C(=C(/Nc1ccc(C(=O)NOCCN3CCN(C)CC3)cc1)c1ccccc1)C(=O)N2 ) reads 42

Field recovery at 5 hr, 10 μM (entry COC(=O)c1ccc2c(c1)NC(=O)/C2=C(\Nc1ccc(C(=O)NOCCN2CCS(=O)(=O)CC2)cc1)c1ccccc1 ) reads 59.6

Field recovery at 5 hr, 10 μM (entry COC(=O)c1cc2c(cc1C)/C(=C(/Nc1ccc(C(=O)N(C)OCCN3C[C@@H]4C[C@H]3CN4)cc1)c1ccccc1)C(=O)N2 ) reads 69.6

Field recovery at 5 hr, 10 μM (entry COC(=O)c1cc2c(cc1C)/C(=C(/Nc1ccc(C(=O)NOCCN3CCCCC3)cc1)c1ccccc1)C(=O)N2 ) reads 75.2

Field recovery at 5 hr, 10 μM (entry COC(=O)c1cc2c(cc1C)/C(=C(/Nc1ccc(C(=O)NOCCN3CCC(OC)CC3)cc1)c1ccccc1)C(=O)N2 ) reads 76.2

Field recovery at 5 hr, 10 μM (entry COC(=O)c1ccc2c(c1)NC(=O)/C2=C(\Nc1ccc(C(=O)N(C)OCCN2CCN(C)CC2)c(C)c1)c1ccccc1 ) reads 51.5
